biological target: CDK2 (Homo sapiens); test: Phage Library Screening with NGS, CDK2; format: binding; set-up: Full length CDK2 (residues 1-298) with an N-terminal GST-3C-6×his-TEV tag; GST-3C-6×his-TEV (N, cleaved yes); made in house; host or cells: Sf9 (Bac-to-Bac baculovirus); conditions: CDK2, target concentration 30
Numbered stars: 1 amine (or outer) side, 2 acyl side, 3 side chain; on linkers, the order of the positions; unused ones are H or OH. Bridge positions count the residues as written; N and C are the ends. Ends that are not written are not given here. Phenylene(1,4-NHCOCH2)2 = O=C(C[*:1])Nc1ccc(NC(=O)C[*:2])cc1
measureName: phage screen counts, Target Concentration 30
Lab note: jot down the number only; don't add units.

Query :: Consider the sequence WSCLSAYFSC (linker 3-10 via Phenylene(1,4-NHCOCH2)2 (inferred)) and give its recorded phage screen counts, Target Concentration 30.
Result :: 0

Query :: Consider the sequence DPAWWECIVAALECSDR (linker 7-14 via Phenylene(1,4-NHCOCH2)2 (inferred)) and give its recorded phage screen counts, Target Concentration 30.
Result :: 0

Query :: Consider the sequence DPAWWVCAIAAMDCHEQ (linker 7-14 via Phenylene(1,4-NHCOCH2)2 (inferred)) and give its recorded phage screen counts, Target Concentration 30.
Result :: 0

Query :: Consider the sequence CLSAFFSCTY (linker 1-8 via Phenylene(1,4-NHCOCH2)2 (inferred); not fully specified (C-terminus)) and give its recorded phage screen counts, Target Concentration 30.
Result :: 0

Query :: Consider the sequence DPAWWSCVIAAMECQDI (linker 7-14 via Phenylene(1,4-NHCOCH2)2 (inferred)) and give its recorded phage screen counts, Target Concentration 30.
Result :: 0

Query :: Consider the sequence PACVSAFFACL (linker 3-10 via Phenylene(1,4-NHCOCH2)2 (inferred)) and give its recorded phage screen counts, Target Concentration 30.
Result :: 0

Query :: Consider the sequence PFECLSAFFSC (linker 4-11 via Phenylene(1,4-NHCOCH2)2 (inferred)) and give its recorded phage screen counts, Target Concentration 30.
Result :: 0

Query :: Consider the sequence DPAWWRCSVAAIDCHWN (linker 7-14 via Phenylene(1,4-NHCOCH2)2 (inferred)) and give its recorded phage screen counts, Target Concentration 30.
Result :: 10

Query :: Consider the sequence CLSAFFMCSS (linker 1-8 via Phenylene(1,4-NHCOCH2)2 (inferred); not fully specified (C-terminus)) and give its recorded phage screen counts, Target Concentration 30.
Result :: 0

Query :: Consider the sequence PECLVAFFSCV (linker 3-10 via Phenylene(1,4-NHCOCH2)2 (inferred)) and give its recorded phage screen counts, Target Concentration 30.
Result :: 1

Query :: Consider the sequence DPAWWRCVVAALDCVDY (linker 7-14 via Phenylene(1,4-NHCOCH2)2 (inferred)) and give its recorded phage screen counts, Target Concentration 30.
Result :: 12

Query :: Consider the sequence PCLEAFFSCVY (linker 2-9 via Phenylene(1,4-NHCOCH2)2 (inferred)) and give its recorded phage screen counts, Target Concentration 30.
Result :: 0

Query :: Consider the sequence DPAWYECVVAAIECHAY (linker 7-14 via Phenylene(1,4-NHCOCH2)2 (inferred)) and give its recorded phage screen counts, Target Concentration 30.
Result :: 12

Query :: Consider the sequence PSCLSAFFSCY (linker 3-10 via Phenylene(1,4-NHCOCH2)2 (inferred)) and give its recorded phage screen counts, Target Concentration 30.
Result :: 1

Query :: Consider the sequence YECLEAFFNC (linker 3-10 via Phenylene(1,4-NHCOCH2)2 (inferred)) and give its recorded phage screen counts, Target Concentration 30.
Result :: 0

Query :: Consider the sequence DPAWYECIVAAIECVEY (linker 7-14 via Phenylene(1,4-NHCOCH2)2 (inferred)) and give its recorded phage screen counts, Target Concentration 30.
Result :: 0
